biological target: T1, human ROR1 Frizzled domain (hROR1-Fz) (human, UniProt Q01973 165-305); assay: SPR Biacore, IgG on anti-Fc, ROR1-Fz analyte
T1 construct: Acro Biosystems, made in HEK293
T1 sequence (Q01973 other isoform, or with tags, fused parts or gaps): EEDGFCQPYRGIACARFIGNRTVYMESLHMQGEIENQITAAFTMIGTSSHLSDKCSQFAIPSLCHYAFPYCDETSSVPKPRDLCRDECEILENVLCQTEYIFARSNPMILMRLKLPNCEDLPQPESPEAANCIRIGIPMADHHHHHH
Quantity name: pKd
To interpret pKd, take it as minus log10 of a concentration measured in moles per litre.

input: I'd like to know its pKd. The binder in question is SRP2196-C03 (antibody, V domains shown, His/FLAG-tagged IgG1) VH: EVQLVESGGGLVQPGGSLRLSCAASGFNITGYYIHWVRQAPGKGLEWVGQISPNSGSTYSADSVKGRFTISADTSKNTAYLQMSSLRAEDTAVYYCARDSRRYVLSWDYWGQGTLVTVSS VL: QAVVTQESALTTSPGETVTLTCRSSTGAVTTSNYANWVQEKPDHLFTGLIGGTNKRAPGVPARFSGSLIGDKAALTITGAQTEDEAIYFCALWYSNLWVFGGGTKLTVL
output: 8.49

input: Next record, please: SRP2196-C02 (antibody, V domains shown, His/FLAG-tagged IgG1) VH: EVQLVESGGGLVQPGGSLRLSCAASGFNITGYHIHWVRQAPGKGLEWVGFISPNSGWTYSADSVKGRFTISADTSKNTAYLQMNSLRAEDTAVYYCARDSRRYVRPFDYWGQGTLVTVSS VL: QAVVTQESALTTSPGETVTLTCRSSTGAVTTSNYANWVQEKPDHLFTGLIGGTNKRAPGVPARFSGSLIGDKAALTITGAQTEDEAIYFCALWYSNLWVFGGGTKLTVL
output: 8.52

input: And the next one, SRP2196-B03 (antibody, V domains shown, His/FLAG-tagged IgG1) VH: EVQLVESGGGLAQPGGSLRLSCAASGFNITGYYIHWVRQAPGKGLEWVGYISPNSGATHYADSVKGRFTISADTSKNTAYLQMNSLRAEDTAVYYCARDSRRYVRPFDYWGQGTLVTVSS VL: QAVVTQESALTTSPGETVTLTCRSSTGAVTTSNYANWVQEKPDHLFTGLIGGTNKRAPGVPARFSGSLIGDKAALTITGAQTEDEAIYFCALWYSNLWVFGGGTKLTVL ?
output: 8.12

input: How about SRP2196-B08 (antibody, V domains shown, His/FLAG-tagged IgG1) VH: EVQLVESGGGLVQPGGSLRLSCAASGFNITGYYIHWVRQAPGKGLEWVGQISPNSGYTYLADSVKGRFTISADTSKNTAYLQMNSLRAEDTAVYYCARDSRRYVRGWDYWGQGTLVTVSS VL: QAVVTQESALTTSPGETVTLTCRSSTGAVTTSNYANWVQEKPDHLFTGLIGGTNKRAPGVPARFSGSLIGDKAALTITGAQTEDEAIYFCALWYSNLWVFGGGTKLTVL ?
output: 8.50

input: And SRP2196-A11 (antibody, V domains shown, His/FLAG-tagged IgG1) VH: EVQLVESGGGLVQPGGSLRLSCAASGFNITGYYIHWVRQAPGKGLEWVGQISPNSGTTYDADSVKGRFTISADTSKNTAYLQMNSLRAEDTAVYYCARDSRRYVRGWDYWGQGTLVTVSS VL: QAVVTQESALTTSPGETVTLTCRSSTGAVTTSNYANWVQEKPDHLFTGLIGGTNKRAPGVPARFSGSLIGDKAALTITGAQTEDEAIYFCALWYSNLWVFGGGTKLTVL ?
output: 8.38

input: Similarly, SRP2196-A07 (antibody, V domains shown, His/FLAG-tagged IgG1) VH: EVQLVESGGGLVQPGGSLRLSCAASGFNITGYYIHWVRQAPGKGLEWVGQISPNSGSTYYADSVKGRFTISADTSKNTAYLQMSSLRAEDTAVYYCARDSRRYVRGWDYWGQGTLVTVSS VL: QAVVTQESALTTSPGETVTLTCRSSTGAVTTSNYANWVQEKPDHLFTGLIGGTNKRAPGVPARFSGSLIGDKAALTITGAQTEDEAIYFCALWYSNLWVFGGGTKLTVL ?
output: 8.46

input: And what about the binder SRP2196-B02 (antibody, V domains shown, His/FLAG-tagged IgG1) VH: EVQLVESGGGLVQPGGSLRLSCAASGFNITQYYIHWVRQAPGKGLEWVGYISPNSGQTYDADSVKGRFTISADTSKNTAYLQMNSLRAEDTAVYYCARDSRRYVRSWDYWGQGTLVTVSS VL: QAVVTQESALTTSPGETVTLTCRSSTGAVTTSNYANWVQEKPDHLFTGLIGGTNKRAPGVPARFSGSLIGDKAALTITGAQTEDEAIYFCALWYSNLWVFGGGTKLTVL ?
output: 8.86

input: Now consider SRP2196-C04 (antibody, V domains shown, His/FLAG-tagged IgG1; also called Antibody 162) VH: EVQLVESGGGLVQPGGSLRLSCAASGFNITGYYIHWVRQAPGKGLEWVGFIAPLSGSTHNADSVKGRFTISADTSKNTAYLQMNSLRAEDTAVYYCARESRRYVNPWDYWGQGTLVTVSS VL: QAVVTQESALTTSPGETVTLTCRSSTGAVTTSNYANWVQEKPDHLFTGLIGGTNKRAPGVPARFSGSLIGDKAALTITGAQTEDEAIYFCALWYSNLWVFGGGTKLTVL .
output: 8.27

input: Let us now turn to SRP2196-B04 (antibody, V domains shown, His/FLAG-tagged IgG1) VH: EVQLVESGGGLVQPGGSLRLSCAASGFNITEYYIHWVRQAPGKGLEWVGYISPNSGATYQADSVKGRFTISADTSKNTAYLQMNSLRAEDTAVYYCARDSRRYVRGWDYWGQGTLVTVSS VL: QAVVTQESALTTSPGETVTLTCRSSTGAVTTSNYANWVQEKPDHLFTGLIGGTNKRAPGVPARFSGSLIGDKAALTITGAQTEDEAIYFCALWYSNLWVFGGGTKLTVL
output: 8.56

input: Can you check SRP2196-B09 (antibody, V domains shown, His/FLAG-tagged IgG1; also called Antibody 160) VH: EVQLVESGGGLVQPEGSLRLSCAASGFNITEYYIHWVRQAPGKGLEWVGYISPNSGSTYYADSVKGRFTISADTSKNTAYLQMNSLRAEDTAVYYCARDSRRYVRSWDYWGQGTLVTVSS VL: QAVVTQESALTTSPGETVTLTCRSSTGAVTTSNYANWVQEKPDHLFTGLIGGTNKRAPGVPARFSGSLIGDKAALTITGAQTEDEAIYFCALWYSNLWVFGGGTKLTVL next?
output: 8.48

Where do the numbers come from? From patent US20240058465A1.
